- Tested target: rh-α5β1 (Homo sapiens, UniProt P05556+P08648)
- Sequence (P08648 42-894 limits assumed): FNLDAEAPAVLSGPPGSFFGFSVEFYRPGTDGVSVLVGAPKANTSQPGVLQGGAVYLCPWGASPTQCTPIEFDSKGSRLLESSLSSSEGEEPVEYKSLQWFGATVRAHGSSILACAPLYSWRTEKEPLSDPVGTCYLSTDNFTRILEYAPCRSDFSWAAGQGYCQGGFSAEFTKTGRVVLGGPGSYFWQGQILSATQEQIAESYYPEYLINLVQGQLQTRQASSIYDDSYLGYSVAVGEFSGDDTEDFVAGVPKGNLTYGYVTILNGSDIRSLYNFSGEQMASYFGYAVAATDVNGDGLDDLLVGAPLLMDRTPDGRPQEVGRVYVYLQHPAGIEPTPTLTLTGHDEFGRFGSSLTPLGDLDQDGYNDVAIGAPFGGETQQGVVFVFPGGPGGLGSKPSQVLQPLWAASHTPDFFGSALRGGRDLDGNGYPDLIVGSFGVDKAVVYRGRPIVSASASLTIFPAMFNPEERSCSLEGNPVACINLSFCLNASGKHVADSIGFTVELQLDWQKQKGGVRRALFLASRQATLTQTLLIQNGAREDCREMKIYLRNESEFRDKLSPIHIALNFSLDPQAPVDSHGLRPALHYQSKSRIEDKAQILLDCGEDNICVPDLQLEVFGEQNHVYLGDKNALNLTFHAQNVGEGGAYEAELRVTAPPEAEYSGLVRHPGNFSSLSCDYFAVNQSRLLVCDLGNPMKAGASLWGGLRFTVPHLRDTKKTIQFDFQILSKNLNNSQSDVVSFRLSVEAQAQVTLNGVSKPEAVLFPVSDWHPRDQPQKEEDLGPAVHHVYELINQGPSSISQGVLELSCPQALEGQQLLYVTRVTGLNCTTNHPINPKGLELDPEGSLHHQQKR
- Sequence (P08648 895-995 limits assumed): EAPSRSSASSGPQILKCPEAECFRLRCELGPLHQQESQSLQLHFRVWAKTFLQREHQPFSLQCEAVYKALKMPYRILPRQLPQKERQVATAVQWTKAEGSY
- Sequence (P05556 21-728 limits assumed): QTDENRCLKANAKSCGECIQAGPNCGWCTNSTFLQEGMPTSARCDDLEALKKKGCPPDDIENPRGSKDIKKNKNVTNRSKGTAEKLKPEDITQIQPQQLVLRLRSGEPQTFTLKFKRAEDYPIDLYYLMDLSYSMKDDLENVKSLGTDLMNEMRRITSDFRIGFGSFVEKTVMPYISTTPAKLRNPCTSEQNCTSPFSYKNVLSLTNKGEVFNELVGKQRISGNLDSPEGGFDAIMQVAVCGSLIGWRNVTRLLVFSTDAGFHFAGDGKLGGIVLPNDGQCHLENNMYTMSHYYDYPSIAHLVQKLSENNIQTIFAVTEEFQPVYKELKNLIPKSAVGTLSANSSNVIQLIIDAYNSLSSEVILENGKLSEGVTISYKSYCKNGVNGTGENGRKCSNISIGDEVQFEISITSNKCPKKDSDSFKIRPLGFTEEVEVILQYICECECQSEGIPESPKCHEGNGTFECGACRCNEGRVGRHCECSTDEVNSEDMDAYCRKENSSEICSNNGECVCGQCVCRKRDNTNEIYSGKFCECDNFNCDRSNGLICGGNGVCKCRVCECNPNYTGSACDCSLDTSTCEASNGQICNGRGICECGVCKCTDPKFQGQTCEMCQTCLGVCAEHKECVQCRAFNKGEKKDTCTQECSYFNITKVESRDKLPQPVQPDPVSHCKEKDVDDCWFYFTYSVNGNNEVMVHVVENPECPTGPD
- Procedure details: Competition binding studies by Biolayer Interferometry (epitope groups)
- Condition set: immobilized mAb C-14D12; secondary mAb pre-mixed with 20 nM rh-α5β1; relative to antigen alone
Reported property: % Response (%)
Write the number in % without appending the unit.

Look at this molecule and give its reported % Response. A-15B08: anti-α5β1 antibody, VH SEQ ID NO:25, VL SEQ ID NO:26; tested as mouse hybridoma antibody and as human IgG4 chimera (antibody, V domains shown, A-15B08 VH Sequence; A-15B08 VL Sequence, tested as mouse hybridoma antibody and as human IgG4 chimera) VH: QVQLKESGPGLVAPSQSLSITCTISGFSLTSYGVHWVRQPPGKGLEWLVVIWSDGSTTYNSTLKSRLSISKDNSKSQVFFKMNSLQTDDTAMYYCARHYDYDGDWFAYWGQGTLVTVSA VL: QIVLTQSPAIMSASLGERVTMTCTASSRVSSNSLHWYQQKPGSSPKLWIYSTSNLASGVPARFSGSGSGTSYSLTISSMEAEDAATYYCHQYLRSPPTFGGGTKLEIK −38.40

Source listed as patent US20240279345A1.
